experiment: Mammalian cell cytotoxicity, summary over both cell lines; format: cell-based; details: human, A549 cells and BEAS-2B cells
endpoint-name: IC50

Please review the entries below; each comes with its answer.
In [3]: df
Out[3]:
                               smiles_input        assay_value
0  Cl.N=C(N)N/N=C/c1ccc(-c2ccc(/C=N/Nc3ccc(Cl)cc3)cc2)cc1  4.4 to 13.9 µg/mL
1  Cl.N=C(N)N/N=C/c1ccc(-c2ccc(/C=N/Nc3ccc(F)cc3F)cc2)cc1  4.4 to 13.9 µg/mL

Please look at the following molecule next.
IN: Report IC50 for `Cl.Cl.N=C(N)N/N=C/c1ccc(-c2cccc(/C=N/NC(=N)N)c2)cc1` please.
OUT: 4.4 to 13.9 µg/mL
